Data origin: patent US9376396B2

Measured Ki by item
tgt: UniProtKB P35462
Sequence (P35462 whole entry): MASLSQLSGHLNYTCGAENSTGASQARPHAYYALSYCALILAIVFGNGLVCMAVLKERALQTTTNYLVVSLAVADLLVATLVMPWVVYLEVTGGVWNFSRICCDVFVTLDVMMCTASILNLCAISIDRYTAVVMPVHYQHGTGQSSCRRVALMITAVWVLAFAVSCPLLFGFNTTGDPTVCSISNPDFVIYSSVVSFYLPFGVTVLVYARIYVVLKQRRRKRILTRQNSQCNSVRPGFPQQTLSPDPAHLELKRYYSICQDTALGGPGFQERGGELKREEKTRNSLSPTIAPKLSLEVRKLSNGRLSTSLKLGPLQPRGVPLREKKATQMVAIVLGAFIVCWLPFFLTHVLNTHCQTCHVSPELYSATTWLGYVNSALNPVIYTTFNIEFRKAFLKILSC

Examples with their reported Ki follow.
[
  {
    "compound": "COCCc1cc(N2CCN(CCC3CC(NC=O)C3)C[C@@H]2C)nc(C(C)(C)C)n1 (some centres unmarked)",
    "val": "< 50 nM"
  },
  {
    "compound": "COCCc1cc(N2CCN(CC[C@H]3CC[C@H](NC=O)CC3)C[C@@H]2C)nc(C(C)(C)C)n1",
    "val": "< 10 nM"
  },
  {
    "compound": "CC(C)(C)c1nc(CCO)cc(N2CCN(CC[C@H]3CC[C@H](NC=O)CC3)CC2)n1",
    "val": "< 50 nM"
  },
  {
    "compound": "COCCc1cc(N2CCN(CC[C@H]3C[C@H](NC(C)=O)C3)C[C@@H]2C)nc(C(C)(C)C)n1",
    "val": "< 50 nM"
  },
  {
    "compound": "CC(=O)N[C@H]1CC[C@@H](CCN2CCN(c3cc(CCOC(F)(F)F)nc(C(C)(C)C)n3)CC2)CC1 [Compound 10a]",
    "val": "< 10 nM"
  }
]

Ask: Fill in the blank: the reported Ki of COCCc1cc(N2CCN(CCC3CC(NC=O)C3)CC2)nc(C(C)(C)C)n1.O=C(O)C(F)(F)F (centres unmarked) [Compound 12, trifluoroacetate] is ____.
Reply: < 10 nM

Ask: Quick one: Ki of CC(=O)N[C@H]1CC[C@H](CCN2CCN(c3cc(CCOC(F)F)nc(C(C)(C)C)n3)[C@@H](C)C2)CC1 ?
Reply: < 10 nM

Ask: Give the measured Ki of COCCc1cc(N2CCN(CC[C@H]3C[C@@H](NC(C)=O)C3)C[C@@H]2C)nc(C(C)(C)C)n1 .
Reply: < 10 nM

Ask: Bench note: what Ki did COCCc1cc(N2CCN(CC[C@@H]3CC[C@@H](NC(C)=O)C3)CC2)nc(C(C)(C)C)n1 show?
Reply: < 50 nM

Ask: Field request: Ki | item: COCCc1cc(N2CCN(CC[C@H]3CC[C@H](NC=O)CC3)CC2)nc(C(C)(C)C)n1
Reply: < 10 nM

Ask: Bench note: what Ki did CC(=O)N[C@H]1CC[C@H](CCN2CCN(c3cc(CO)nc(C(C)(C)C)n3)CC2)CC1 show?
Reply: < 50 nM

* * *

tgt: human dopamine D2L receptors (long isoform) (Homo sapiens, UniProt P14416)
Construct: expressed in transfected cells; host or cells: HEK-293
Sequence (P14416 whole entry, canonical isoform): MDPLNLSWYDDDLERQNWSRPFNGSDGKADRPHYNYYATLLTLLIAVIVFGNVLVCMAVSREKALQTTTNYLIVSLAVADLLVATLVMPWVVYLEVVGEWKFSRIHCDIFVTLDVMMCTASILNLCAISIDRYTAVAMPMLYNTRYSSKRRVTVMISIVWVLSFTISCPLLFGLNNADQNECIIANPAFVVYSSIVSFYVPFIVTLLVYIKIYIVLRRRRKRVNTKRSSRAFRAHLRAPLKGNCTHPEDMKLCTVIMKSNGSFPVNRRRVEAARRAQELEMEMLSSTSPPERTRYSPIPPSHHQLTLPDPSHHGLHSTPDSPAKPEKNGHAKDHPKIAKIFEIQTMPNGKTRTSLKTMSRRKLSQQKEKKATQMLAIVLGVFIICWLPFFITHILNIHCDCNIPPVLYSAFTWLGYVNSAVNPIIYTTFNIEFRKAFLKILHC
experimentDescription: Receptor binding study, dopamine D2L receptor ([125I]iodospiperone displacement), selectivity vs D3
testContext: selectivity ratio, HEK-293 membranes

[
  {
    "structureSmiles": "COCCc1cc(N2CCN(CC[C@H]3CC[C@H](NC(C)=O)C3)CC2)nc(C(C)(C)C)n1",
    "tgt": "human dopamine D2L receptors (long isoform) (Homo sapiens, UniProt P14416)",
    "D2/D3 (Ki (D2L)/Ki (D3))": "+++ (+++>50)"
  },
  {
    "structureSmiles": "COCCc1cc(N2CCN(CC[C@H]3CC[C@H](NC=O)CC3)C[C@@H]2C)nc(C(C)(C)C)n1",
    "tgt": "human dopamine D2L receptors (long isoform) (Homo sapiens, UniProt P14416)",
    "D2/D3 (Ki (D2L)/Ki (D3))": "+++ (+++>50)"
  },
  {
    "structureSmiles": "CC(=O)N[C@H]1CC[C@H](CCN2CCN(c3cc(CO)nc(C(C)(C)C)n3)CC2)CC1",
    "tgt": "human dopamine D2L receptors (long isoform) (Homo sapiens, UniProt P14416)",
    "D2/D3 (Ki (D2L)/Ki (D3))": "+++ (+++>50)"
  }
]
